Values from patent US20210198277A1

- ASSAYED_SYSTEM: EHMT2 (Homo sapiens)
- Construct: host or cells: MDA-MB-231
- Sequence (Q96KQ7 1-1210): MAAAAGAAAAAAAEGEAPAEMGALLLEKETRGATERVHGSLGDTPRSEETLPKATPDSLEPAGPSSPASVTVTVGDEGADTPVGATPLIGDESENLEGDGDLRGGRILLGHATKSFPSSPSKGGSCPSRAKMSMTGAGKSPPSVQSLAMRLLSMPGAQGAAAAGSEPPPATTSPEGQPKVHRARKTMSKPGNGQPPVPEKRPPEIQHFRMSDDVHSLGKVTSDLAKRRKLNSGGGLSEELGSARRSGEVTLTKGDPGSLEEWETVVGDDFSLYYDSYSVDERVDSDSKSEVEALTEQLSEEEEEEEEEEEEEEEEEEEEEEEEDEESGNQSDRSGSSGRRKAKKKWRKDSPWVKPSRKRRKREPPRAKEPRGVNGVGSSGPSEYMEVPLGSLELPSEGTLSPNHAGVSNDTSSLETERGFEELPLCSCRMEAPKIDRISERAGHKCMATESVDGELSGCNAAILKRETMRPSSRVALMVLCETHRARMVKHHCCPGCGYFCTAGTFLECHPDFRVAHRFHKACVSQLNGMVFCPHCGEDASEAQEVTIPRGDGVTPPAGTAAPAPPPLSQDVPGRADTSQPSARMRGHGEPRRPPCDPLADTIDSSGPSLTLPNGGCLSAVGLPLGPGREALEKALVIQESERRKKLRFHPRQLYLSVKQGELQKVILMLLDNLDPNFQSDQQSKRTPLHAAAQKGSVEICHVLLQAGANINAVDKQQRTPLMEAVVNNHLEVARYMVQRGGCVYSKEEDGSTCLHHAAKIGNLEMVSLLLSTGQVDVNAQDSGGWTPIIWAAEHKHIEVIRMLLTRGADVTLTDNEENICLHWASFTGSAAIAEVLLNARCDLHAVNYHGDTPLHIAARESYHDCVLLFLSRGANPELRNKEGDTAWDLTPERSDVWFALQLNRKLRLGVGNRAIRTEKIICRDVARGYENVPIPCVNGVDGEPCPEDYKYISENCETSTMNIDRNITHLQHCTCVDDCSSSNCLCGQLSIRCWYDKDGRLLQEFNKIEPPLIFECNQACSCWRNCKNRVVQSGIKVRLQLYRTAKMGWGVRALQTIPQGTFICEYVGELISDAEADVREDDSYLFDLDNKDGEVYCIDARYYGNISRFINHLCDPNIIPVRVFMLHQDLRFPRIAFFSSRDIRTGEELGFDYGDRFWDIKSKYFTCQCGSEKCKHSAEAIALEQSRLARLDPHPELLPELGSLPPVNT
- EXPERIMENT_NOTES: MDA-MB-231 H3K9me2 in-cell Western assay (EHMT2 ICW)
- Format: cell-based
- TEST_CONDITIONS: Table VI; read-out: EHMT2 ICW IC50
MEASUREMENT_NAME: IC50

* COc1ncc(Nc2nc(C)cc(NCC3COC3)n2)cc1OC[C@H](O)CN1CCCC1 [Compound 884] | > 10 µM
* COc1cc(NC2CCNCC2)ncc1OCC1CCN(C)C1 (stereo not shown) [Compound 604] | > 10 µM
* CNc1cc(C)nc(Nc2cc(OC[C@@H](O)CN3CCCC3)c(OC)cn2)n1 [Compound 885] | > 10 µM
* CNCCNCc1cc(Nc2nc(C)cc(NC)n2)ccc1OC [Compound 964] | 1 to 10 µM
* CNc1cc(C)nc(Nc2ccc(OC)c(CN(C)CCN3CCCC3)c2)n1 [Compound 645] | 1 to 10 µM
* CNc1ccnc(Nc2ccc(OC)c(OC[C@@H](O)CN3CCC3)c2)n1 [Compound 907] | 1 to 10 µM
* COc1nc(NC2CCNCC2)ncc1OCC1CCN(C)C1 (stereo not shown) [Compound 605] | > 10 µM
* CNc1cc(C2CCOCC2)c2cc(OC)c(OC[C@@H]3CCN(C)C3)cc2n1 [Compound 803] | 1 to 10 µM
* COc1cc2c(C3CCN(C)CC3)nc(N3CCCC3)nc2cc1OCCCN1CC(O)C1 [Compound 950] | 1 to 10 µM
* CNc1cc(C)nc(Nc2ccc(OC)c(C#CCN3CCN(C)CC3)c2)n1 [Compound 860] | > 10 µM
* CNc1cc(C2CCN([C@H]3CCOC3)CC2)c2cc(OC)c(OCCCN3CCCC3)cc2n1 [Compound 867] | < 0.1 µM
* CNc1cc(C(C)C)c2cc(OC)c(OCCCN3CCCC3)cc2n1 [Compound 817] | 0.1 to 1 µM
* COc1cc2c(C3CCN([C@H]4CCOC4)CC3)cc(C)nc2cc1OCCCN1CCCC1 [Compound 864] | 0.1 to 1 µM
